# Tested on: Plasmodium berghei
# METHOD: Screen against P. berghei liver stage (PbLuc), transformed with Luciferase, at 10uM
# Assay type: functional, HepG2
# ASSAY_CONTEXT: tested at 10 uM
About 8,600 (12%) of roughly 69,000 compounds showed an effect of 50% or more. The entries come from a sample that favours strong results as a whole.
OBSERVATION_TYPE: INHIBITION (%)

COMPOUND | TESTED_ON | VALUE_REPORTED
COc1cccc(NC(=O)NCC2CCCN(C3CCOCC3)C2)c1 (stereo unspecified) | Plasmodium berghei | 58.8
COc1ccc(O)c(C(=O)NCC2CCCN(C3CCOCC3)C2)c1 (stereo unspecified) | Plasmodium berghei | 14.3
CCc1nc(CC)n(CC(=O)NCc2ccccc2C)n1 | Plasmodium berghei | 37.6
CN(CCc1ccccc1)Cc1c(C2CCOCC2)[nH]c2ncccc12 | Plasmodium berghei | 17.125
CC(C)N1CCC2(CC1)NC(=O)c1cc(Br)ccc1-n1nnnc12 | Plasmodium berghei | 58.2
Cc1cccc(C)c1NC(=O)NCC1CCCN(C2CCOCC2)C1 (stereo unspecified) | Plasmodium berghei | -15
COc1cccc(OCC2CCCN(C3CCN(C(C)=O)CC3)C2)c1 (stereo unspecified) | Plasmodium berghei | 15.1
O=C1NC2(CCCCC2)c2nnnn2-c2ccc(Br)cc21 | Plasmodium berghei | 42.4
CN(CCc1ccccc1)Cc1c(C2CC2)[nH]c2ncccc12 | Plasmodium berghei | 14.185
COc1ccc(C(=O)Nc2cnn(CCN3CCOCC3)c2)c(O)c1 | Plasmodium berghei | 29.5
CN(CCc1ccccc1)Cc1c(C2CCNCC2)[nH]c2ncccc12 | Plasmodium berghei | 58.95
